system: IGROV-1; assay: NCI tumour cell line growth inhibition, 48 h
Active and inactive are the calls of the source. No stated cut-off is given here; in the data, active = GI50 up to about 1.1 µM and inactive = higher.
Possible outcomes: active, inactive

molecule	category
O=C(O)C[C@@H]1[C@@H](O)[C@@H](O)CN2C(=O)c3ccccc3[C@H]12	inactive
O=C(CCN1CCCC1)Nc1ccc2sc3ccccc3c(=O)c2n1	inactive
O=C1CCC2(c3ccccc3)Nc3ccccc3N12 (stereo not given)	inactive
COc1cc2c(c(OC)c1OC)-c1ccc(SC)c(=O)cc1[C@@H](NC(=O)c1ccc(Cl)cc1)CC2	active
CC1=CC[C@H](C(C)C)C(C(O)[C@@H](C)O[Si](c2ccccc2)(c2ccccc2)C(C)(C)C)C1=O (stereo not given in full)	inactive
O=c1nc(NC(c2ccccc2)(c2ccccc2)c2ccccc2)ccn1CCCl	inactive
CNC(=S)N1CCN(C(C)=O)C1=S	inactive
C[C@@H]1O[C@@H](O[C@H]2CC[C@]3(C=O)[C@H]4CC[C@]5(C)[C@@H](C6=CC(=O)OC6)CC[C@]5(O)[C@@H]4CC[C@]3(O)C2)[C@H](O)[C@H](O)[C@H]1O	active
Cc1cc(C)nc(/C(=N\NC(N)=O)C(=O)Nc2nc3ccc(C)cc3s2)c1	inactive
O=C1c2ccccc2NC(=O)C2C1C(c1ccccc1)CC2(O)c1ccccc1 (stereo not given)	inactive
Cn1cnc([N+](=O)[O-])c1Sc1nc(N)nc2c1ncn2C1OC(CO)C(O)C1O (stereo not given)	inactive
CN1CCC23c4c5ccc(O)c4OC2c2[nH]c4ccccc4c2CC3(O)C1C5 (stereo not given)	inactive
COc1c(O)c2ccccc2c2cc(O)ccc12	inactive
C=CCCCCn1c2ccccc2c2c(C)c3c[n+](C)ccc3c(C)c21	active
Cn1cc(-c2csc(-c3cn(C)c4ccccc34)n2)c2ccccc21	inactive
Cc1c(C=C(C#N)C#N)c(=O)n(C)c(=O)n1C	inactive
CC(=O)C1=C(C)O[C@@H]2O[C@H](COCc3ccccc3)[C@@H](OCc3ccccc3)[C@H](O)[C@@H]2S1	inactive
C[C@]12CC[C@H](O)CC1=CC[C@@H]1[C@@H]2CC[C@]2(C)C(=N/O)/C(=C/c3ccc([N+](=O)[O-])cc3)C[C@@H]12	inactive
COc1ccc(CCn2cncn2)cc1	inactive
O=C1/C(=C/c2ccccc2)Oc2cc(O)ccc21	inactive

###

system: LXFL 529; assay: NCI tumour cell line growth inhibition, 48 h
Active and inactive are the calls of the source. Cut-off read from the data, not from the text of the source: active = GI50 up to about 1.1 µM and inactive = higher.
Possible outcomes: active, inactive

> print(dat)
                                    molecule  category
 1  CCc1nnc(S)n1/N=C/c1ccc(-c2ccc([N+](=O)[O-])cc2)o1  inactive
 2  C[C@]12CCC(=O)C=C1CC[C@@H]1C2CC[C@]2(C)Nc3c(cnn3-c3ccccc3)CC12 (stereo partly specified)  inactive
 3  CC12CCC(=O)N1c1cc([N+](=O)[O-])ccc1N2 (stereo unspecified)  inactive
 4  CN1N=CSC12C(=O)N(c1ccccc1)C(=O)N2c1ccccc1 (stereo unspecified)  inactive
 5       CCC1OCCN1C(C)C (stereo unspecified)  inactive
 6  COC(=O)/N=C(\NC(=O)OC)Nc1ccc(Oc2ccccc2)cc1NC=O    active
 7        CC(=O)OCCOCNC(=S)N/N=C(\C)c1cnccn1  inactive
 8                     COc1ccc(CCn2cncn2)cc1  inactive
 9  C[C@]12Cc3cn[nH]c3C(=O)C1CC[C@@H]1C2CC[C@@]2(C)C1CC[C@@H]2O (stereo partly specified)  inactive
10     CCOC(=O)/C=C/n1c2ccccc2c(=O)c2ccccc21  inactive
11                     N#Cc1ccccc1Nc1ccccc1S  inactive

###

system: RXF 393; experiment: NCI tumour cell line growth inhibition, 48 h
Calls of active or inactive are those of the source. Rule as the data show it: active = GI50 up to about 1.1 µM and inactive = higher.
Each entry below lists one item and its recorded GI50 value.
measure-name: GI50

compound	measured-value
Cc1cc(S(=O)(=O)Nc2nnc3cc(C(F)(F)F)cc(C)n23)c(S)cc1Cl	> 100 µM (inactive)
CC1CC/C(=C\c2ccc(N(C)C)cc2)C2=C1C(c1ccc(N(C)C)cc1)NC(=S)N2 (stereo not drawn)	> 100 µM (inactive)
CCN(CC)CCCN(c1cc(OC)cc2nccnc12)S(=O)(=O)c1ccc(C)cc1	41.1 µM (inactive)
CON(C)C(C#N)=C(C#N)C#N	> 10 µM (inactive)
CC(=O)O[C@H]1C[C@H]2[C@@H](OC(C)=O)/C=C3\C[C@](C)(C(=O)[C@H](O)C(=C1C)C2(C)C)[C@@H](O)C[C@@H]3OC(=O)[C@H](O)[C@H](c1ccccc1)N(C)C	> 100 µM (inactive)
CO[C@]1(c2ccc([N+](=O)[O-])cc2)Oc2ccccc2C(=O)[C@@]1(Nc1ccc(C=O)cc1)OC	> 10 µM (inactive)
[N-]=[N+]=Nc1ccc(S(=O)(=O)Oc2cc(OS(=O)(=O)c3ccc(N=[N+]=[N-])cc3)cc(OS(=O)(=O)c3ccc(N=[N+]=[N-])cc3)c2)cc1	> 100 µM (inactive)
CC(=O)OC1CC2Oc3ccc(C)cc3C(C)(O2)C1=O (stereo not drawn)	> 100 µM (inactive)

###

test system: MCF7; test: NCI tumour cell line growth inhibition, 48 h
The source made the active and inactive calls. No stated cut-off is given here; in the data, active = GI50 up to about 1.1 µM and inactive = higher.
Possible outcomes: T for active, F for inactive

compound	measured-on	category
COc1cc2c(ccc3c4cc(OC)c(OC)cc4c[n+](C)c23)cc1O [FAGARONINE]	MCF7	F
CCOc1cc(CCNC)c2c(ccc3ccc(OC)c(O)c32)c1OC	MCF7	F
Clc1ccc(CCNCCNC2(c3cc4ccccc4s3)CCCCC2)cc1Cl	MCF7	F
CCn1c(=O)c2cn[nH]c2n(C)c1=O	MCF7	F
COc1ccc(/C=C2/S/C(=N\c3ccccc3)N(NC(=O)Cc3ccccc3)C2=O)cc1	MCF7	F
O=C(NCCc1n[nH]c2c1C(=O)C=C(Nc1ccccc1)C2=O)OCc1ccccc1	MCF7	F
Oc1ccc2c3c1OC1c4[nH]c5c(c4CC4(O)C(C2)N(CC2CC2)CC[C@]314)CC1(O)C2Cc3ccc(O)c4c3[C@@]1(CCN2CC1CC1)C5O4 (stereo partly specified)	MCF7	F
Nc1ncnc2c1ncn2[C@H]1C=C[C@@H](NO)C1	MCF7	F
CSc1nc(O)c(C#N)c(-c2ccc(Cl)cc2)n1	MCF7	F
C=CC[C@@H]1C=C[C@@H](C(=O)OC)n2c(=O)n(-c3ccccc3)c(=O)n21	MCF7	F
Cc1ccc(S(=O)(=O)Oc2nc3nc4ccccc4nc3nc2OS(=O)(=O)c2ccc(C)cc2)cc1	MCF7	F
O=C1/C(=C/C=C/c2ccccc2)CCC1CNc1ccc(Br)cc1 (stereo unspecified)	MCF7	F
Cc1c2c(c(O)c3c(O)cccc13)C(=O)C1(O)C(=O)C(C(=O)NCNc3ccc(C(N)=O)cn3)=C(O)C(N(C)C)C1C2 (stereo unspecified)	MCF7	F
Cc1cc(C(O)CNC(C)CCn2cnc3c2c(=O)n(C)c(=O)n3C)ccc1O (stereo unspecified)	MCF7	F
COc1cc(C(=O)OC2CC(C)=CC[C@@]3(C)CC[C@](O)(C(C)C)C23)ccc1O (stereo partly specified)	MCF7	F
N#Cc1cc2c(cc1C#N)SCCSCCCSCCS2	MCF7	F
O=c1cc(-c2ccccc2)[nH]c2ccc(N3CCOCC3)cc12	MCF7	T
CC(C)C1OC(/C=C/c2ccccc2)OCC1(C)C (stereo unspecified)	MCF7	F
CC1NC(=O)C(C)C(c2ccccc2)N(N=O)C1c1ccccc1 (stereo unspecified)	MCF7	F
COc1cc2c(c(OC)c1OC)C(=O)c1c(O)cc(C)c(OC)c1C2=O	MCF7	F
CNC(=O)Nc1ccccc1	MCF7	F

###

system: UACC-257; experiment: NCI tumour cell line growth inhibition, 48 h
Active and inactive are the calls of the source. No stated cut-off is given here; in the data, active = GI50 up to about 1.1 µM and inactive = higher.

molecule	GI50
CC1CC(N)=Nc2ccccc2N1 (stereo unspecified)	> 100 µM (inactive)
COC1C(N)C(OC2C(Oc3cccc4c(O)c5c(=O)oc6ccc(C)c7c(=O)oc(c34)c5c67)OC(C)C(O)C2(C)O)OC(C)C1O (stereo unspecified)	0.0658 µM (active)
OCC12C3C4C5C3C1C5C42 (stereo unspecified)	> 100 µM (inactive)
CN(C(=O)Nc1ccc(Cl)c(Cl)c1)C1CCCC[C@@H]1N1CCCC1 (stereo partly specified)	18.8 µM (inactive)
N#Cc1ccccc1Nc1ccccc1S	57.3 µM (inactive)
CC1(C)CCC[C@@]2(C)C1CC[C@@]1(CO)O[C@H](C3=CC(=O)OC3O)C[C@H]12 (stereo partly specified)	14.9 µM (inactive)
COC1CCC(OC)C(C2(C3CC(OC)CCC3OC)OC(=O)c3ccccc32)C1 (stereo unspecified)	> 100 µM (inactive)
COC(=O)C(=Cc1cc(OC)ccc1OC)C(=O)OC	14.1 µM (inactive)
CCOC(=O)c1sc2nc1CSc1sc(=S)sc1SCc1nc(sc1C(=O)OCC)-c1nc(c(C(=O)OCC)s1)CSc1sc(=S)sc1SCc1nc-2sc1C(=O)OCC	> 10 µM (inactive)
CC(C)CCC[C@@H](C)C1CCC2[C@@H]3CC=C4C[C@@H](OC(=O)CCC(=O)NCC[N+](C)(C)CCCS(=O)(=O)[O-])CC[C@]4(C)C3CC[C@@]21C (stereo partly specified)	23.2 µM (inactive)
O=C(NCCCl)SCCO	> 100 µM (inactive)
COc1cc2c(c(OC)c1OC)-c1ccc(SC)c(=O)cc1[C@@H](NC(=O)c1ccc(Cl)cc1)CC2	< 0.01 µM (active)
COc1ccc(-c2oc3c(OC)c(OC)c(OC)c(O)c3c(=O)c2OC)cc1OC	32.1 µM (inactive)
CCOC(=O)Nc1sc2c(c1C#N)CC(C)CC2 (stereo unspecified)	11 µM (inactive)
CCC1=C(C)/C(=C/c2[nH]c(C(Br)Br)c(CC)c2C)N=C1C(Br)Br	19.9 µM (inactive)
N#Cc1c(N)nc2[nH]nc(N)c2c1-c1ccc(Cl)cc1	11.9 µM (inactive)
CC1NC(=O)C(C)C(c2ccccc2)N(N=O)C1c1ccccc1 (stereo unspecified)	> 100 µM (inactive)
C/C(=N\[N+](C)(C)C)c1ccc(C)c(C)c1	0.752 µM (active)
CC(O)CCC(=O)c1ccoc1 (stereo unspecified)	5130 µM (inactive)
O=C1C=C2C(=NC34CCCCC3C(c3ccccc3)C3=C(c5ccccc5CC3)N24)c2ccccc21 (stereo unspecified)	> 10 µM (inactive)
O=C1C=CC2(O[C@H](C3CCCCC3)[C@@H](C3CCCCC3)O2)C(SC(=O)c2ccccc2)C1 (stereo partly specified)	7.05 µM (inactive)
